# System: rhythmic bladder contractions induced by substance P
# methodSummary: Inhibitory effect on the rhythmic bladder contractions induced by substance P in anesthetized rats
# Format: in vivo, rat
# conditionNotes: time during which frequency of rhythmic contraction was completely inhibited, 0.25 mg/kg of the compound, substance P infusion
assayEndpoint: 100% inhibition time range

Some solved entries appear below for comparison.
COCc1ccc(-c2nc(CC(=O)O)c(-c3ccc(Cl)s3)o2)cn1	C (A≧20>B≧10>C (minute))
CCc1nc(-c2ccc(C#N)s2)[nH]c1-c1cccnc1	B (A≧20>B≧10>C (minute))
Cl.O=C(O)Cc1nc(-c2ccc(F)cc2)oc1-c1cccnc1	B (A≧20>B≧10>C (minute))
CCCc1nc(-c2ccc(C#N)cc2)[nH]c1-c1ccccc1	A (A≧20>B≧10>C (minute))
Cc1ccccc1-c1nc(CC(=O)O)c(-c2cccs2)o1	C (A≧20>B≧10>C (minute))
O=C(O)Cc1nc(-c2ccc3occc3c2)oc1-c1ccc(Cl)s1	B (A≧20>B≧10>C (minute))
O=C(O)Cc1nc(-c2cscn2)oc1-c1ccc(Cl)s1	B (A≧20>B≧10>C (minute))
CN(C)c1ccc(-c2nc(CC(=O)O)c(-c3cccs3)o2)cn1	B (A≧20>B≧10>C (minute))

In the following, a different molecule is considered.
[Q] Which 100% inhibition time range value is on record for O=C(O)Cc1nc(-c2cc3ccccc3s2)sc1-c1ccc(Cl)s1 ?
[A] B (A≧20>B≧10>C (minute))

----------
Structures can show the parent of a compound that is named as a salt.
assayEndpoint: melting point

Please review the entries below; each comes with its answer.
O=CNc1[nH]c(-c2ccc(F)cc2)nc1-c1ccccc1	245 to 247 °C
CCCc1nc(-c2ccsc2)[nH]c1-c1ccccc1 (as salt: HCl)	215 to 217 °C
C[S+]([O-])Cc1nc(-c2ccc(F)cc2)oc1-c1ccsc1 (stereo not drawn)	173 to 174.5 °C
CCCc1nc(-c2cccc(F)c2)[nH]c1-c1ccccc1 (as salt: HCl)	192 to 193 °C
CCCc1nc(-c2cccc(Cl)c2)[nH]c1-c1ccccc1 (as salt: HCl)	202 to 204 °C

[Q] Could you share which melting point value was measured for COC(=O)c1nc(-c2ccc(F)cc2)oc1-c1ccsc1 ?
[A] 213 to 214 °C

[Q] // lookup melting point for CCOC(=O)Cc1nc(-c2ccc(OC)cc2)oc1-c1cccs1
[A] 105 to 107 °C

[Q] Return reported melting point; argument: Cl.O=C(O)Cc1nc(-c2ccc(Cl)s2)oc1-c1cccnc1
[A] 234 to 238 °C (dec.)

[Q] Which melting point reading was recorded for the compound CCCc1nc(-c2ccc(F)cc2)[nH]c1-c1cccc(F)c1 (as salt: HCl) ?
[A] 228 to 230 °C

----------
# System: rhythmic bladder contractions induced by substance P
# methodSummary: Inhibitory effect on the rhythmic bladder contractions induced by substance P in anesthetized rats
# Type: in vivo, rat
# conditionNotes: time during which frequency of rhythmic contraction was completely inhibited, 0.25 mg/kg of the compound, substance P infusion
assayEndpoint: 100% inhibition time range

O=C(O)Cc1nc(-c2cc3ncccc3s2)oc1-c1ccc(Cl)s1 [Preparation Example 470]	B (A≧20>B≧10>C (minute))
CCOc1ccc(-c2nc(-c3ccc(Cl)s3)c(CC(=O)O)s2)cn1 [Preparation Example 586]	B (A≧20>B≧10>C (minute))
O=C(O)Cc1nc(-c2ccc(F)cc2)oc1-c1ccc[nH]1 [Preparation Example 524]	B (A≧20>B≧10>C (minute))
